The measurements presented in this section are drawn from patent US20260152557A1.

MEASURED TARGET: T1, cynomolgus CD3εδ-Fc heterodimer (Cy CD3ε Fc / CD3δ Fc-HIS) (cynomolgus, UniProt Q95LI8 22-100)
T1 construct: range 22-100; Produced in HEK 293 cells; also called Cy CD3εδ Fc heterodimer; not shown: Fc-HIS part of CD3δ Fc-HIS
T1 sequence (chain, as listed by the source mutant, form in doubt, chain 1 of 2): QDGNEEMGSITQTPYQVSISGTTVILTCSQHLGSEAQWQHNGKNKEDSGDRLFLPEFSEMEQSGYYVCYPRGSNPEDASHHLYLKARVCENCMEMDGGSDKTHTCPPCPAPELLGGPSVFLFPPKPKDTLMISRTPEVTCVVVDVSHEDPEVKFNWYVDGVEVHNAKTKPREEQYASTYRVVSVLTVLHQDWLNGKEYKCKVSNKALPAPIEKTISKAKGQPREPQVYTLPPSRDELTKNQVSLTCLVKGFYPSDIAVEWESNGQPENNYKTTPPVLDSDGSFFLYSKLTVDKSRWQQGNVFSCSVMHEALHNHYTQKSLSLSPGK
T1 sequence (Q95LI8 22-100, stated change not applied, form in doubt, chain 2 of 2): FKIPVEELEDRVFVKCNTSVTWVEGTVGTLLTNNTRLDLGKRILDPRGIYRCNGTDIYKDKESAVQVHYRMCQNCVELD
METHOD: BLI (Octet), CHO-produced IgG on AHC sensor, CD3εδ-Fc 100 nM in solution, pH 6.0
For each record, write down the corresponding pKd.
Scale note: pKd = -log10(concentration in M).

Exercise: Given ADI-74967 (Antibody No. 5), human IgG1 (antibody, V domains shown, Tested as human IgG1 (yeast-produced aglycosylated, or CHO-produced)) VH: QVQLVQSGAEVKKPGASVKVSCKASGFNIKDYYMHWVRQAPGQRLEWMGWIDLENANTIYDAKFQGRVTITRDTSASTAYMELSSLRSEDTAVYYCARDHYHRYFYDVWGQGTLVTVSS VL: GIVMTQSPDSLAVSLGERATINCKSSQSLLNARTGKNYLAWYQQKPGQPPKLLIYWASTRESGVPDRFSGSGSGTDFTLTISSLQAEDVAVYYCKQSHSHRTFGGGTKVEIK , state its recorded pKd.
Solution: 7.43

Exercise: Given ADI-74968 (Antibody No. 6), human IgG1 (antibody, V domains shown, Tested as human IgG1 (yeast-produced aglycosylated, or CHO-produced)) VH: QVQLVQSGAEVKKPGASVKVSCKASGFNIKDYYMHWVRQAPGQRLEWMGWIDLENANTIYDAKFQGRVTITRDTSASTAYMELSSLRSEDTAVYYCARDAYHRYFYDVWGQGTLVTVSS VL: DIVMTQSPDSLAVSLGERATINCKSSQSLLNARTGHNYLAWYQQKPGQPPKLLIYWASTRESGVPDRFSGSGSGTDFTLTISSLQAEDVAVYYCKQSYSHRTFGGGTKVEIK , state its recorded pKd.
Solution: 7.77

Exercise: Given ADI-48587 (Antibody No. 2), human IgG1 (antibody, V domains shown, Tested as human IgG1 (yeast-produced aglycosylated, or CHO-produced); also called Ab No. 2; parent pH-dependent antibody) VH: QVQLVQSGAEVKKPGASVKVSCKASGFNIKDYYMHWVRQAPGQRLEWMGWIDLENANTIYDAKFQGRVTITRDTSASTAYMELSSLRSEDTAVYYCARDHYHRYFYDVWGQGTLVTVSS VL: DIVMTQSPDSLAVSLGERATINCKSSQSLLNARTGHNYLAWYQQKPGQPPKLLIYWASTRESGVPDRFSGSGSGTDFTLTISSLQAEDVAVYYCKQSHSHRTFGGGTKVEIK , state its recorded pKd.
Solution: 6.35

Exercise: Given ADI-26906 (Antibody No. 1), human IgG1 (antibody, V domains shown, Non-pH-dependent parent; Tested as human IgG1 (yeast-produced aglycosylated, or CHO-produced); also called Ab No. 1) VH: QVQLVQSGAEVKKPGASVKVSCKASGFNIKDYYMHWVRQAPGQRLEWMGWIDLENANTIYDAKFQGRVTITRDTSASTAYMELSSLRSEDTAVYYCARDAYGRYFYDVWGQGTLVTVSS VL: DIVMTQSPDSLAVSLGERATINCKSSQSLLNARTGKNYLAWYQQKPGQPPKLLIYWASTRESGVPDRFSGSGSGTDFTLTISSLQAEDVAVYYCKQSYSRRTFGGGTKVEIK , state its recorded pKd.
Solution: 8.23

Exercise: Given ADI-74966 (Antibody No. 4), human IgG1 (antibody, V domains shown, Tested as human IgG1 (yeast-produced aglycosylated, or CHO-produced)) VH: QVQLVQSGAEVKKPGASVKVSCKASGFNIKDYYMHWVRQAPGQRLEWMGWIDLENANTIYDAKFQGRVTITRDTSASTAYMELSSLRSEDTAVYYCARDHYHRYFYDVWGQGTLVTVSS VL: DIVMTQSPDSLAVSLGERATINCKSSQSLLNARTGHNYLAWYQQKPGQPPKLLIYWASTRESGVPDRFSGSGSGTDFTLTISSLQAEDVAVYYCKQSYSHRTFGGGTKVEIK , state its recorded pKd.
Solution: 6.68

Exercise: Given ADI-74965 (Antibody No. 3), human IgG1 (antibody, V domains shown, Tested as human IgG1 (yeast-produced aglycosylated, or CHO-produced)) VH: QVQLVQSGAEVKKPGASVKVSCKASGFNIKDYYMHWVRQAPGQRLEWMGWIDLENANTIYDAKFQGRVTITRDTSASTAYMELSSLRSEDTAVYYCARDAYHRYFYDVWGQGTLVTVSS VL: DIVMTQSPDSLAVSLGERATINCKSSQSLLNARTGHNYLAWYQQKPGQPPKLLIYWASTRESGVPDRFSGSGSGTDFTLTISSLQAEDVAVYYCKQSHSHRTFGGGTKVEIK , state its recorded pKd.
Solution: 7.47
